Test system: L5178Y
assay.info: Cytotoxicity against multi-drug resistant mouse L5178Y cells transfected with ABCB1 gene assessed as inhibition of cell growth incubated for 24 hrs by MTT assay
Assay type: functional, cell-based
Each entry below lists one item and its recorded IC50 value.
measurement.type: IC50

>>> test_value("COc1cc(O)c2c(c1)O[C@H](c1ccc(O)cc1)C/C2=N\\Nc1ccc(Br)cn1")
"12.7 µM"
>>> test_value("O=C(N/N=C1\\C[C@@H](c2ccc(O)cc2)Oc2cc(O)cc(O)c21)OCc1ccccc1")
"≥ 11.3 µM"
>>> test_value("COc1cc(O)c2c(c1)O[C@H](c1ccc(OCC3CO3)cc1)CC2=O (some centres undefined)")
"≥ 11.3 µM"
>>> test_value("COc1cc(O)c2c(c1)O[C@H](c1ccc(O)cc1)CC2=O [SAKURANETIN]")
"≥ 11.3 µM"
>>> test_value("COc1ccc([C@@H]2C/C(=N\\NC(=O)c3ccco3)c3c(O)cc(OC)cc3O2)cc1")
"3.4 µM"
>>> test_value("Oc1ccc([C@@H]2C/C(=N\\Nc3ccccc3)c3c(O)cc(O)cc3O2)cc1")
"≥ 11.3 µM"
>>> test_value("COc1cc(O)c2c(c1)O[C@H](c1ccc(O)cc1)C/C2=N\\NC(=O)Cc1c[nH]c2ccccc12")
"≥ 11.3 µM"
>>> test_value("Oc1ccc([C@@H]2C/C(=N\\Nc3ccc(Br)cn3)c3c(O)cc(O)cc3O2)cc1")
"≥ 11.3 µM"
>>> test_value("CCN(CC)CC(O)COc1ccc([C@@H]2CC(=O)c3c(O)cc(OC)cc3O2)cc1 (some centres undefined)")
"≥ 11.3 µM"
